# target_or_system: IDO1 (Homo sapiens)
# Sequence (P14902 whole entry): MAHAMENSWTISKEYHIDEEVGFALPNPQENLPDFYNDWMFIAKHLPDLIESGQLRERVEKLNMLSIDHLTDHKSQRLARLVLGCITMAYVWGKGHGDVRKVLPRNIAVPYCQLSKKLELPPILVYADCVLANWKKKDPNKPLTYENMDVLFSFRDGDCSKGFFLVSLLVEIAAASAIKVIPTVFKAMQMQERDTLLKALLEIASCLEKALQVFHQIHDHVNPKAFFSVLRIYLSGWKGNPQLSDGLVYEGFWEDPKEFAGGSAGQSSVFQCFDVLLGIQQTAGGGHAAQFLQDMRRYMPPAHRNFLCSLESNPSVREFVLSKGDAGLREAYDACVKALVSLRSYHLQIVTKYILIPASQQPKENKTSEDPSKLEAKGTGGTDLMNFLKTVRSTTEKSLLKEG
# assay: IDO1 Cellular Assay in HeLa Cells Stimulated with IFNγ
# Assay type: cell-based
# applied_conditions: IFNγ 100 ng/mL, 300 uM L-tryptophan, about 48 hours, fluorescence readout, read-out: IDO1 HELA Cell Assay, IC50
# Protocol: Biological Assays IDO1 Cellular Assay in HeLa Cells Stimulated with IFNγ HeLa cells were cultured in complete HeLa culture medium (90% EMEM, 10% heat-inactivated fetal bovine serum) and expanded to about 1×10^9 cells. […] Frozen HeLa cells were thawed and transferred into HeLa assay medium (99% complete HeLa culture medium, 1% Pen/Strep) with 20 mL medium/vial of cells. […] The cells were then counted and adjusted to a density of 2×10^5 cells/mL in HeLa assay medium. […]
Would you kindly list IC50 for each of these compounds?
API: value field is a number in nM; no unit string.

Q) I am curious: what IC50 value has been reported for C[C@@H]1CN(C(=O)c2nn(CC(=O)N3CCC(c4cccc(C(F)(F)F)c4F)CC3)c3c2CCC3)C[C@H](C)O1 ?
A) 29.8

Q) I am curious: what IC50 value has been reported for C[C@@H]1CN(C(=O)c2nn(CC(=O)N3CCC(c4cc(F)c(F)c(F)c4Cl)CC3)c3c2CCC3)C[C@H](C)O1 ?
A) 80.2

Q) I am curious: what IC50 value has been reported for C[C@@H]1CN(C(=O)c2nn(CC(=O)N3CCC(c4cccc(C(C)(F)F)c4)CC3)c3c2CCC3)C[C@H](C)O1 ?
A) 156

Q) I am curious: what IC50 value has been reported for Cc1ccc(C2CCN(C(=O)Cn3nc(C(=O)N4C[C@@H](C)O[C@@H](C)C4)c4c3CCC4)CC2)cc1C ?
A) 8.8

Q) I am curious: what IC50 value has been reported for CCc1cccc(C2CCN(C(=O)Cn3nc(C(=O)N4C[C@@H](C)O[C@@H](C)C4)c4c3CCC4)CC2)c1 ?
A) 21.5

Q) I am curious: what IC50 value has been reported for Cc1ccc(C2CCN(C(=O)Cn3nc(C(=O)N4C[C@@H](C)O[C@@H](C)C4)c4c3CCC4)CC2)cc1F ?
A) 11.9

Q) I am curious: what IC50 value has been reported for Cc1cccc(C2CCN(C(=O)Cn3nc(C(=O)N4CCC(O)CC4)c4c3CCC4)CC2(F)F)c1C (single isomer, unassigned) [Example 15] ?
A) 11.6

Q) I am curious: what IC50 value has been reported for C[C@@H]1CN(C(=O)c2nn(CC(=O)N3CCC(c4ccccc4C4CC4)CC3)c3c2CCC3)C[C@H](C)O1 ?
A) 42.6

Q) I am curious: what IC50 value has been reported for C[C@@H]1CN(C(=O)c2nn(CC(=O)N3CCC(c4ccccc4Cl)C3)c3c2CCC3)C[C@H](C)O1 (some centres unmarked) ?
A) 346

Q) I am curious: what IC50 value has been reported for C[C@@H]1CN(C(=O)c2nn(CC(=O)N3CCC(c4cccc5ccccc45)CC3)c3c2CCC3)C[C@H](C)O1 ?
A) 6.4

Q) I am curious: what IC50 value has been reported for Cc1cccc(C2CCN(C(=O)Cn3nc(C(=O)N4CCN(C(=O)CO)CC4)c4c3CCCC4)CC2)c1C ?
A) 3.7

Q) I am curious: what IC50 value has been reported for COc1c(C)cc(C2CCN(C(=O)Cn3nc(C(=O)N4C[C@@H](C)O[C@@H](C)C4)c4c3CCC4)CC2)cc1C ?
A) 28.9

Q) I am curious: what IC50 value has been reported for Cc1cccc(C2CCN(C(=O)Cn3nc(C(=O)N4CCC(C)(O)CC4)c4c3CCC4)CC2)c1C ?
A) 2.8

Q) I am curious: what IC50 value has been reported for Cc1c(C2CCN(C(=O)Cn3nc(C(=O)N4CCO[C@@H](CO)C4)c4c3C[C@H]3C[C@@H]43)CC2)cccc1C(F)(F)F ?
A) 1.7
